The compounds listed here are annotated with their pEC50.
System: HCV replicon cells (1b-Con1)
Experiment: Replicon activity assay (cell-based anti-HCV activity)
Conditions: Hepatitis C virus, 72 h, three days post-dosing, replicon RNA level by real-time RT-PCR, read-out: EC50 (1b) Range
Description: To measure cell-based anti-HCV activity of the compounds of the present invention, replicon cells (1b-Con1) are seeded at 5000 cells/well in 96-well plates one day prior to treatment with a compound of the invention. […] Cells are harvested three days post-dosing, and the replicon RNA level is determined using real-time RT-PCR (Taqman assay) with GAPDH RNA as endogenous control. EC50 values are calculated from experiments with 10 serial twofold dilutions of the inhibitor in triplicate. […]
pEC50: −log10 of the molar value.
METRIC: pEC50

CC(C)OC(=O)CCO[P@@]1(=O)OC[C@H]2O[C@@H](n3ccc(=O)[nH]c3=O)[C@](C)(Cl)[C@@H]2O1 [Compound 27A] | 5.00 to 6.00
CCOC(=O)CCCCOP1(=O)OC[C@H]2O[C@@H](n3ccc(=O)[nH]c3=O)[C@](C)(N)[C@@H]2O1 (stereo partly shown) [21A or 21B] | < 5.00
COC(=O)CCCCO[P@]1(=O)OC[C@H]2O[C@@H](n3ccc(=O)[nH]c3=O)[C@](C)(Cl)[C@@H]2O1 [Compound 23B] | 5.00 to 6.00
CC(C)OC(=O)CCCO[P@]1(=O)OC[C@H]2O[C@@H](n3ccc(=O)[nH]c3=O)[C@](C)(C#N)[C@@H]2O1 | 6.00 to 6.60
CC(C)OC(=O)CCCO[P@@]1(=O)OC[C@H]2O[C@@H](n3ccc(N)nc3=O)[C@](C)(N)[C@@H]2O1 [Compound 10A] | < 5.00
C#C[C@@]1(O)[C@@H]2O[P@](=O)(OCCCC(=O)OC(C)C)OC[C@H]2O[C@H]1n1ccc(=O)[nH]c1=O [Compound 13B] | 5.00 to 6.00
C#C[C@]1(C)[C@@H]2O[P@@](=O)(OCCCCC(=O)OC)OC[C@H]2O[C@H]1n1ccc(=O)[nH]c1=O [Compound 22A] | < 5.00

----------
test: Cytotoxicity assay in replicon cells (MTS); assay type: cell-based; conditions: HCV replicon cells (1b-Con1), three days post dosing, head prints EDU, method MTS, read-out: CC50 (EDU) Range
The molecules listed here are annotated with their CC50 at 3 days.
METRIC: CC50 at 3 days

C[C@@]1(Cl)[C@@H]2O[P@@](=O)(OCCCC(=O)OC3CCCC3)OC[C@H]2O[C@H]1n1ccc(N)nc1=O [Compound 6A] | > 50 µM
CC(C)OC(=O)CCCCO[P@@]1(=O)OC[C@H]2O[C@@H](n3ccc(=O)[nH]c3=O)[C@](C)(N)[C@@H]2O1 [Compound 14A] | > 50 µM
CC(C)OC(=O)CCCCO[P@]1(=O)OC[C@H]2O[C@@H](n3ccc(=O)[nH]c3=O)[C@](C)(N)[C@@H]2O1 [Compound 14B] | > 50 µM

----------
tested on: HCV replicon cells (1b-Con1); assay: Replicon activity assay (cell-based anti-HCV activity); details: Hepatitis C virus, 72 h, three days post-dosing, replicon RNA level by real-time RT-PCR, read-out: EC50 (1b) Range
pEC50: −log10 of the molar value.
METRIC: pEC50

C[C@@]1(Cl)[C@@H]2O[P@](=O)(OCCCC(=O)OC3CCCC3)OC[C@H]2O[C@H]1n1ccc(N)nc1=O | ≥ 6.60
C[C@@]1(Cl)[C@@H]2O[P@](=O)(OCCCCC(=O)OC3CCCC3)OC[C@H]2O[C@H]1n1ccc(=O)[nH]c1=O [Compound 19B] | 6.00 to 6.60
CC(C)OC(=O)CCCCO[P@@]1(=O)OC[C@H]2O[C@@H](n3ccc(=O)[nH]c3=O)[C@](C)(Cl)[C@@H]2O1 [Compound 18A] | 5.00 to 6.00
COC(=O)CCCCO[P@@]1(=O)OC[C@H]2O[C@@H](n3ccc(=O)[nH]c3=O)[C@](C)(Cl)[C@@H]2O1 [Compound 23A] | 6.00 to 6.60
CC(C)OC(=O)CCCCCO[P@@]1(=O)OC[C@H]2O[C@@H](n3ccc(=O)[nH]c3=O)[C@](C)(N)[C@@H]2O1 [Compound 25A] | < 5.00
CCCCOC(=O)CCCO[P@]1(=O)OC[C@H]2O[C@@H](n3ccc(=O)[nH]c3=O)[C@](C)(N)[C@@H]2O1 | 5.00 to 6.00
CCOc1nc(N)nc2c1ncn2[C@@H]1O[C@@H]2CO[P@](=O)(OCCCC(=O)OC(C)C)O[C@H]2[C@@]1(C)Cl | < 5.00
CC(C)OC(=O)CCO[P@]1(=O)OC[C@H]2O[C@@H](n3ccc(=O)[nH]c3=O)[C@](C)(N)[C@@H]2O1 [Compound 28B] | < 5.00
CCOc1nc(N)nc2c1ncn2[C@@H]1O[C@@H]2CO[P@](=O)(OCCCC(=O)OC(C)C)O[C@H]2[C@@]1(C)N | < 5.00
CC(C)OC(=O)CCCO[P@]1(=O)OC[C@H]2O[C@@H](n3ccc(N)nc3=O)[C@](C)(N)[C@@H]2O1 [Compound 10B] | < 5.00
CC(C)OC(=O)CCCO[P@]1(=O)OC[C@H]2O[C@@H](n3ccc(=O)[nH]c3=O)[C@](C)(N)[C@@H]2O1 [Compound 12B] | < 5.00
C#C[C@]1(C)[C@@H]2OP(=O)(OCCCC(=O)OC3CCCC3)OC[C@H]2O[C@H]1n1ccc(=O)[nH]c1=O (some centres unmarked) | ≥ 6.60
CC(C)OC(=O)CCCCO[P@@]1(=O)OC[C@H]2O[C@@H](n3ccc(=O)[nH]c3=O)[C@](C)(N)[C@@H]2O1 [Compound 14A] | < 5.00
CC(C)OC(=O)CCO[P@]1(=O)OC[C@H]2O[C@@H](n3ccc(=O)[nH]c3=O)[C@](C)(Cl)[C@@H]2O1 [Compound 27B] | 5.00 to 6.00
C#C[C@]1(C)[C@@H]2O[P@](=O)(OCCCCC(=O)OCC)OC[C@H]2O[C@H]1n1ccc(=O)[nH]c1=O [Compound 20B] | < 5.00
C#C[C@]1(C)[C@@H]2O[P@@](=O)(OCCC(=O)OC(C)C)OC[C@H]2O[C@H]1n1ccc(=O)[nH]c1=O [Compound 26A] | < 5.00
C#C[C@]1(C)[C@@H]2O[P@@](=O)(OCCCC(=O)OC(C)C)OC[C@H]2O[C@H]1n1ccc(=O)[nH]c1=O [Compound 11A] | 5.00 to 6.00
C#C[C@]1(C)[C@@H]2O[P@@](=O)(OCCCCC(=O)OC(C)C)OC[C@H]2O[C@H]1n1ccc(=O)[nH]c1=O [Compound 15A] | < 5.00
C#C[C@]1(C)[C@@H]2O[P@@](=O)(OCCCCC(=O)OCC)OC[C@H]2O[C@H]1n1ccc(=O)[nH]c1=O [Compound 20A] | < 5.00
C[C@@]1(N)[C@@H]2O[P@@](=O)(OCCCCC(=O)OC3CCCC3)OC[C@H]2O[C@H]1n1ccc(=O)[nH]c1=O [Compound 17A] | < 5.00
C[C@@]1(N)[C@@H]2O[P@](=O)(OCCCCC(=O)OC3CCCC3)OC[C@H]2O[C@H]1n1ccc(=O)[nH]c1=O [Compound 17B] | 5.00 to 6.00
CC(C)OC(=O)CCO[P@@]1(=O)OC[C@H]2O[C@@H](n3ccc(=O)[nH]c3=O)[C@](C)(N)[C@@H]2O1 [Compound 28A] | < 5.00
C#C[C@]1(C)[C@@H]2O[P@](=O)(OCCCCC(=O)OC)OC[C@H]2O[C@H]1n1ccc(=O)[nH]c1=O [Compound 22B] | < 5.00
C#C[C@]1(C)[C@@H]2O[P@@](=O)(OCCCCC(=O)OC3CCCC3)OC[C@H]2O[C@H]1n1ccc(=O)[nH]c1=O [Compound 16A] | < 5.00
CCOc1nc(N)nc2c1ncn2[C@@H]1O[C@@H]2CO[P@@](=O)(OCCCC(=O)OC(C)C)O[C@H]2[C@@]1(C)Cl | ≥ 6.60
CC(C)OC(=O)CCCOP1(=O)OC[C@H]2O[C@@H](n3ccc(=O)[nH]c3=O)[C@](C)(C#N)[C@@H]2O1 (some centres unmarked) | 5.00 to 6.00
